This collection of values is drawn from paper PMC9402713.

Target: T1, Ars2 (58-609) (Schizosaccharomyces pombe)
T1 chain: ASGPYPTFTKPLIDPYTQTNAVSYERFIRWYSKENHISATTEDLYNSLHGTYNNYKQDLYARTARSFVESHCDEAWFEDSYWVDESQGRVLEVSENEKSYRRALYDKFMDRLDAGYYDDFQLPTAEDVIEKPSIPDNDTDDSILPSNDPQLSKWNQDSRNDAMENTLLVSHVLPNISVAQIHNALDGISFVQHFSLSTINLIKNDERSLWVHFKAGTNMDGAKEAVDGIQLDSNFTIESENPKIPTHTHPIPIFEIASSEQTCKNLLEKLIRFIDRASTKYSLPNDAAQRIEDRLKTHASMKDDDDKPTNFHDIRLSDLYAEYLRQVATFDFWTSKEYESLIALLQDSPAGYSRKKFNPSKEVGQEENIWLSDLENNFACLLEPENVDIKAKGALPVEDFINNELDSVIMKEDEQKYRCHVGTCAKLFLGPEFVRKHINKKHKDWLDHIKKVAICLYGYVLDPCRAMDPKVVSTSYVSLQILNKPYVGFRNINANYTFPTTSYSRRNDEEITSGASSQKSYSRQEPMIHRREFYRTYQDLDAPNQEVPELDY
Assay: ITC; 200 mM NaCl
Where no end group is shown, it is not given here.
Measure Name: pKd
In simple prose, pKd is minus the logarithm base ten of a concentration in moles per litre.

Any idea what pKd was measured for KNEEDESNDSDKEDGEISEDD (not fully specified) [Red1 peptide 20-40] ?
5.36
